assay: Human HepG2 cell viability assay in 384 well format; format: toxicity, cell-based; set-up: dose 125 nL, time 70.5 hour; concentration not given beside the values; settings: HepG2 cells, read-out: Inhibition
Collected cytotoxicity at 70.5 h values appear next to each entry.
Measured Quantity: cytotoxicity at 70.5 h

Compound: Cc1nc(CN2CCCn3c(nc(Cn4ccnc4)cc3=O)C2)cs1
Result: -21.2%
--
Compound: CCC1c2ccsc2CCN1C(=O)NCCNc1ncccn1 (centres undefined)
Result: 0.287%
--
Compound: CC(=O)Nc1nc(CN2CCOC(Cn3cc(C)cn3)C2)cs1 (centres undefined)
Result: -7.56%
--
Compound: CC(CNC(=O)c1ccco1)N1CCc2sccc2C1 (centres undefined)
Result: -4.45%
--
Compound: O=c1c(CN2CCOCC2)coc(O)c1CN1CCOCC1
Result: -7.31%
--
Compound: Cc1occc1C(=O)N1CCC2(CC1)CN(Cc1nccs1)CCO2
Result: 7.01%
--
Compound: Nc1nnc(CCCNc2ncnc3c2CCN(C(=O)C2CC2)C3)s1
Result: -12%
--
Compound: O=C(N1CCOCC1)N1CCc2ncnc(NC3CC3)c2CC1
Result: 21%
--
Compound: CNC(=O)c1sc2ccccc2c1C1CCN(c2nc(C)cc(C)n2)C1 (centres undefined)
Result: -6.07%
--
Compound: O=C(Cc1ccc2c(c1)OCO2)N1CCN(c2cnccn2)CC1
Result: -8.46%
--
Compound: Cc1ccoc1-c1nnc(CN2CCCC(Cn3cncn3)C2)o1 (centres undefined)
Result: -6.83%
--
Compound: CCCS(=O)(=O)c1ccc(N2CCN(Cc3ccccc3)CC2)nn1
Result: -8.4%
--
Compound: CCOC(=O)CN1C(=O)CN(S(C)(=O)=O)CCC(OC)c2ccccc21 (centres undefined)
Result: -8.31%
--
Compound: Cc1nc(CN(C)C2CCN(Cc3ccc4ccccc4n3)C2)no1 (centres undefined)
Result: 20.5%
--
Compound: Cc1ccc(C2(O)CCN(Cc3nnc(-c4cccnc4)o3)CC2)nc1
Result: -2.19%
--
Compound: CCOCCC(=O)N1C[C@H]2CC[C@@H]1CN(c1ncccn1)C2
Result: -5.84%
--
Compound: CNc1nc2c(s1)C(c1cccc(F)c1F)CC(=O)N2 (centres undefined)
Result: -11.9%
--
Compound: CCc1c(C)nc(N)nc1NCCSCc1[nH]cnc1C
Result: -2.58%
--
Compound: Cc1cnc(N2CC3(CCN(S(=O)(=O)C4CC4)C3)C2)nc1
Result: -11.5%
--
Compound: Cc1cc(C(F)(F)F)nc(CNC(=O)CCC2CCCCN2C)n1 (centres undefined)
Result: 0.421%
--
Compound: COc1ccccc1Oc1ncccc1CNC(=O)C(C)N1CCCC1 (centres undefined)
Result: -1.98%
--
Compound: CCN1CC2(CC1=O)CN(C(=O)c1cccs1)CCN(C(=O)N(C)C)C2 (centres undefined)
Result: -1.77%
--
Compound: C[C@]1(O)CN(Cc2cccc(C(=O)O)c2)CC[C@@H]1Oc1cccc(F)c1
Result: -4.99%
--
Compound: CC(Cc1cnccn1)NC(=O)COc1ccc(F)cc1F (centres undefined)
Result: 3.61%
